method_description: amyloid nucleation score (Sup35N fusion, yeast selection) (log enrichment); library NNK3; higher = more nucleation; inactive = no reads after selection;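 further: zero at mode of non-aggregating sequences after 7 days selection at 30°C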
reported_property: amyloid nucleation score
Please state the value as a number alone, without comment.

Field: example entries. Status: answers known.
FLLEYYVCMFAVWSIWGMGH    0.317
TRVDLLYRSRNDGIVFFSRF    0.773
QGSYTAESTVHHWGFKMNNY    0.754

// switching to the query sequence
Could you share which amyloid nucleation score value was measured for YGLSFHDLYGCCLRLGIGMD ? 1.63

###

method_description: amyloid nucleation score (Sup35N fusion, yeast selection) (log enrichment); library NNK1; higher = more nucleation; inactive = no reads after selection
Hi all, reminder that labels come from amyloid nucleation score, split as low = under -0.005, moderate = from -0.005 up to 0.5, high = 0.5 and over

// known answers, use as guide
SFTVVGLKLTIVRDNNS    high
MLSTTLALLTERSFGAY    moderate
FYFTHRFRITVRYSVLVMRT    high
TGFGKKRATGWVAWGWEKLL    low
HMAAYKVSGVKSGSPEW    low
ITFKLNMCPILWIPCVACSN    high

Categorize the following entry: SFSKYAGFARKWSMLRVASY low

Would you mind sorting IRGYGAWGQWGSYRFRESES into the appropriate category? high

Form: Item = SLPAEYSRRPKWVGASTVDW ; Class = ? high

Category of FFALVYW : moderate

Hi, small favor: classify CVKRLLPVYWWGESG by its amyloid nucleation score when you get a moment. moderate

Lab note: which band did YTRRVTNDVNNFGTFTRMSS land in? high

Sort SNDKHKIRIYAGYFFVQRGC into one of the categories. moderate

Which amyloid nucleation score band matches RSVWDRWFDPIMTFEQESTW ? low

Using the reported amyloid nucleation score, which band applies to CCNGRLIIGNSNGNESYLSK ? low

###

method_description: amyloid nucleation score (Sup35N fusion, yeast selection) (log enrichment); library NNK2; higher = more nucleation; inactive = no reads after selection
reported_property: amyloid nucleation score
Answer with a number only.

Guide cases for amyloid nucleation score, answers given:
PREFGRLL    -0.757
FILCMTSWDYLDDCRFLFEL    1.03
CFSCFIASGDT    7.44
STRTSADRSFIIMVWCNIDL    3.62
DRLMLALGKGHGFEIGGPVL    1.37

Which amyloid nucleation score is listed for DFCGRG ? -0.152

# query: amyloid nucleation score of entry DTLVHMLRYFGGTQPWYM -0.183

Recorded amyloid nucleation score for NNTNIECSWWIYVWSRHNNR , please? 5.99

Fill in the blank: the reported amyloid nucleation score of LYLIRRHESCCLPNIR is ____. 0.039

###

Overview of reported amyloid nucleation score across a group of substances:
method_description: amyloid nucleation score (Sup35N fusion, yeast selection) (log enrichment); library NNK1; higher = more nucleation; inactive = no reads after selection
Reply with the value as a number alone.

Below are worked cases with known answers.
SLVNFVAMGARDRIPCVYKR    -1.03
KVFQQGC    -0.165
YGGISMLLCRSVWRFNRQYI    0.547
DVLSSNVFRNWVMVRSYSRQ    0.795
NTQRTLIFSPMFVSRRLNLA    2.64

Suppose we examine the substance MRQWSGQG ; what amyloid nucleation score value has been reported? 0.758

###

method_description: amyloid nucleation score (Sup35N fusion, yeast selection) (log enrichment); library NNK3; higher = more nucleation; inactive = no reads after selection
reported_property: amyloid nucleation score

# annotated cases, reported amyloid nucleation score shown
NKSYNDRARYVARGRDI    inactive
VLMGMRCEREFPE    inactive
SCRIFDPMEPTTLCENSWSL    inactive
EGEVCSVCY    inactive
CTNCNAKAYPWGTVSMPREW    inactive

Need amyloid nucleation score, item TWGKRFYSGIMVQCIREEWA -0.741

Name the reported amyloid nucleation score value associated with the sequence CIAYNMVSDYVSIGFNAGDM inactive

Quick check: amyloid nucleation score of FMTSEWRMGMYGVSGRITWE ? 0.73

Request the reported amyloid nucleation score associated with IYCVEERHFLNIYSRMSYYS inactive

###

method_description: amyloid nucleation score (Sup35N fusion, yeast selection) (log enrichment); library NNK1; higher = more nucleation; inactive = no reads after selection
Known amyloid nucleation score of a selection of substances
// return just the number, without any unit appended

Solved cases (5 shown):
SGSLGS    0.386
LVALDNAENFRSRKQWIGIR    -0.599
DNRLMHIIDMWCRSYFSGHT    -0.063
VIPVLWAVLWEAIIYEEGGA    0.778
LWSVKEGWGRPEAGHRQLWG    -0.413

Which amyloid nucleation score value belongs to CSTTLEVTVGMAVVMLLQGI ? 2.66

What measured amyloid nucleation score goes with RTSPPFNTVYYTGEYEIIEI ? -0.353

Please look up its amyloid nucleation score: ILYNLGTWFRLC -0.496

Give the measured amyloid nucleation score of NRQKFSDVSYCTMTMFRVAH . -0.61

Fill in the blank: the reported amyloid nucleation score of KAQGPSFYEYRWITLNYLGY is ____. 1.07

Bench note: what amyloid nucleation score did IRGNSKGMGQREFISPFPAR show? -1

Suppose we examine the substance RRYCDTTVFHGYSVSCRAYG ; what amyloid nucleation score value has been reported? -0.842

###

method_description: amyloid nucleation score (Sup35N fusion, yeast selection) (log enrichment); library NNK2; higher = more nucleation; inactive = no reads after selection
reported_property: amyloid nucleation score
Give your answer as a number; write no unit.

RLSSYILAIYSNRAKYF    0.412
KNSLKVLLNRRLRVCGSQLN    -0.309

Which amyloid nucleation score value is on record for FFEFKDNSSWFK ? 3.3

Quick check: amyloid nucleation score of STAFFSIIIVFFISTCRETP ? -0.78

Which measured amyloid nucleation score value corresponds to MLLVVYGQVRTISLLRRRSS ? -0.243

Quick check: amyloid nucleation score of ACQPVWIESRFSLAERTRLS ? 0.012

Which amyloid nucleation score value belongs to GTFSCGSGEI ? 0.534

Can you look up the measured amyloid nucleation score of QRVMHTYYVS for me? 0.073

###

method_description: amyloid nucleation score (Sup35N fusion, yeast selection) (log enrichment); library NNK1; higher = more nucleation; inactive = no reads after selection
Assign class by amyloid nucleation score: not lower than 0.3 means label 1; lower than 0.3 means label 0.

KVVDNAYSSDSLYFVGLFFW    label 1
SLTCWG    label 1
VCSLSVYRTCSRDLFNFIWV    label 0
HTHSGVYC    label 0
IVLRFIRILISINLSQEH    label 0
KDLLYKSIRW    label 1

Could you tell me if the measured amyloid nucleation score of FAGFTGGVLYGVWRLLGSCR reaches 0.3 or more? label 0

Form field: amyloid nucleation score at least 0.3? Entry: IGWFHHFHHATLHRAISVFL label 1

Please tell me: is the substance GFTMSTEGVS at or over 0.3 in terms of amyloid nucleation score? label 1

I'd appreciate it if you could say whether TSMLDLN has amyloid nucleation score at least equal to 0.3. label 0

Please tell me: is the substance KMRVHGLAVHRATQ at or over 0.3 in terms of amyloid nucleation score? label 0

Test whether the substance RQNGRKDPGNVKRGITCR records amyloid nucleation score of 0.3 or higher. label 0

###

method_description: amyloid nucleation score (Sup35N fusion, yeast selection) (log enrichment); library NNK1; higher = more nucleation; inactive = no reads after selection
Please note: Fulfilled applies when amyloid nucleation score is 0.05 or greater, and Not fulfilled applies otherwise.

Could you tell me if the measured amyloid nucleation score of HSSKYRRFVSTTVTIVSVSR reaches 0.05 or more? Fulfilled

###

method_description: amyloid nucleation score (Sup35N fusion, yeast selection) (log enrichment); library NNK3; higher = more nucleation; inactive = no reads after selection
reported_property: amyloid nucleation score
Number only, please.

// returns reported amyloid nucleation score for input FSFRTMYVFDPLYNKYRIFM 0.125

// returns reported amyloid nucleation score for input LLRRNINMFSIQFFSRVTWL -0.141

Entry MFRDIWLFGPISWIYECCRS has what amyloid nucleation score? 2.36

Requested field: amyloid nucleation score. Item: YLVGCWNYESKN 0.234

May I ask what amyloid nucleation score has been recorded for YRHICKYCFGQPVGHH ? -1.1

So what does the record say about amyloid nucleation score for INIWSMYYMILLLFFIIYRL ? 0.55

Looking for the measured amyloid nucleation score of FYCIVFQYGSLDLARH , can you help? 2.69

###

method_description: amyloid nucleation score (Sup35N fusion, yeast selection) (log enrichment); library NNK3; higher = more nucleation; inactive = no reads after selection
reported_property: amyloid nucleation score

CEFRIFNWSFCSKRVGLRYV    inactive
CSLIQSVRSTA    inactive
SYMQAWVTNCMSVFSVVMKQ    inactive
HWPCLNSYEAIVFFCGMDSH    inactive
LRKFFHLLQIIMERNINRSI    inactive
TWRFVPRPLLVCMLYRYLCK    inactive
IKTRAKLLYFQLVVLTNFLP    inactive
CRYSSYVPVGLYKKWGICWM    inactive
RVLRLLRVDAGHNLI    -0.029
VLGPGIIRTEQVLTVVRTMA    inactive

Look at this sequence and give its reported amyloid nucleation score. TILGDFVFVFILKVCFTYHR -0.806
